System: SK-OV-3 ovarian
Test: NCI tumour cell line growth inhibition, 48 h
measured.endpoint: TGI

molecule	target.or.system	TGI
CN1C2C=C(c3ccccc3)CC1CC2 (stereo unspecified)	SK-OV-3 ovarian	> 100 µM

Would you be so kind as to report TGI for each listed record?
1. CN(C)c1ccc(/C=C(\NC(=O)c2ccccc2)C(=O)Nc2ccccc2C(=O)O)cc1
2. CCOC(=O)c1cc(C2CCN(Cc3ccccc3)C2=O)c(C(=O)C(=[N+]=[N-])C(C)=O)[nH]1 (stereo unspecified)
3. OC(COc1cccc2ccccc12)CN1CCN(c2ccccc2)CC1 (stereo unspecified)
4. C/C(=C\CCc1ccoc1)CC/C=C(\C)CCCN1CCC(CO)CC1

> 100 µM
> 100 µM
32.4 µM
20 µM

Would you be so kind as to report TGI for each listed record?
1. Cc1nc2ccccc2c(=O)n1NC(=O)c1ccccc1O
2. COc1cc(C2CC(c3cc(C)ccc3C)=NN2c2ccc(S(=O)(=O)NC(=O)NCc3ccccc3)cc2)cc(OC)c1OC (stereo unspecified)
3. CCOC(=O)C(=O)N=Nc1nc2c(O)c3ccccc3c(O)c2s1
4. C=C(C)[C@@]1(O)CCC[C@H]1NC(=O)OC(C)(C)C

["> 100 µM", "18.4 µM", "34.4 µM", "> 100 µM"]

Would you be so kind as to report TGI for each listed record?
1. COC(=O)N/N=C/c1oc(-c2ccccc2)c(-c2ccccc2)c1[N+](=O)[O-]
2. COC(=NCCC1=CCCCC1)OC

["> 100 µM", "> 100 µM"]

---

Tested on: CCRF-CEM leukemia
Assay: NCI tumour cell line growth inhibition, 48 h
What TGI was measured for each of the following?
Numbers only, in µM.

Past entries and their recorded results:
compound	unit	measured.result
O=C1CN2C(Cl)(Cl)C2(c2ccccc2)c2cc(Cl)ccc2N1CC(F)(F)F (stereo not given)	µM	42.3
CCCN(CCCCN1C(=O)c2ccccc2C1=O)CC1COc2ccccc2O1 (stereo not given)	µM	88.8

TGI for C/C(=C\CCc1ccoc1)CC/C=C(\C)CCCN1CCC(CO)CC1 ? 6.47

---

System: OVCAR-5 ovarian
Experiment: NCI tumour cell line growth inhibition, 48 h
What TGI was measured for each of the following?

molecule	measured.result
c1ccc2sc(C3(N4CCCCC4)CCCCCC3)cc2c1	36.7 µM
COc1cc(C2CC(c3cc(C)ccc3C)=NN2c2ccc(S(=O)(=O)NC(=O)NCc3ccccc3)cc2)cc(OC)c1OC (stereo not given)	26.1 µM
CC(=O)[O-].CC(=O)[O-].[NH2-].[Pt+2].c1ccncc1	> 100 µM
CC(=O)NCCc1c[nH]c2ccc(Cl)cc12	> 100 µM
Cn1cc(C[C@@H](N)C(=O)O)c2ccccc21	> 100 µM
O=c1c2ccccc2c(=O)c2c1cc(Cl)c1[nH]c3c([nH]c12)c(Cl)cc1c(=O)c2ccccc2c(=O)c13	> 100 µM

Would you be so kind as to report TGI for each listed record?
1. CC(C)=CCc1c(C)cc2cc3c(c(O)c2c1O)C(O)=CC(=O)C3(CC=C(C)C)C/C=C(\C)CO (stereo not given)
2. NCC1OC(OC2C(CO)OC(OC3C(O)C(N)CC(N)C3OC3OC(CO)C(O)C(O)C3N)C2O)C(N)C(O)C1O (stereo not given)
3. CC1OC(OC2CC(O)C3(CO)C4C(O)CC5(C)C(C6=CC(=O)OC6)CCC5(O)C4CCC3(O)C2)C(O)C(O)C1O (stereo not given)
4. COc1ccc(C2=C(c3cc(OC)c(OC)c(OC)c3)C(=O)CC2)cc1

1: 84.6 µM; 2: > 50 µg/mL; 3: 0.0311 µM; 4: > 100 µM
